Measured IC50, listed per entry for reference.
# experimentalSystem: TEC (Homo sapiens)
# Sequence (P42680 1-631): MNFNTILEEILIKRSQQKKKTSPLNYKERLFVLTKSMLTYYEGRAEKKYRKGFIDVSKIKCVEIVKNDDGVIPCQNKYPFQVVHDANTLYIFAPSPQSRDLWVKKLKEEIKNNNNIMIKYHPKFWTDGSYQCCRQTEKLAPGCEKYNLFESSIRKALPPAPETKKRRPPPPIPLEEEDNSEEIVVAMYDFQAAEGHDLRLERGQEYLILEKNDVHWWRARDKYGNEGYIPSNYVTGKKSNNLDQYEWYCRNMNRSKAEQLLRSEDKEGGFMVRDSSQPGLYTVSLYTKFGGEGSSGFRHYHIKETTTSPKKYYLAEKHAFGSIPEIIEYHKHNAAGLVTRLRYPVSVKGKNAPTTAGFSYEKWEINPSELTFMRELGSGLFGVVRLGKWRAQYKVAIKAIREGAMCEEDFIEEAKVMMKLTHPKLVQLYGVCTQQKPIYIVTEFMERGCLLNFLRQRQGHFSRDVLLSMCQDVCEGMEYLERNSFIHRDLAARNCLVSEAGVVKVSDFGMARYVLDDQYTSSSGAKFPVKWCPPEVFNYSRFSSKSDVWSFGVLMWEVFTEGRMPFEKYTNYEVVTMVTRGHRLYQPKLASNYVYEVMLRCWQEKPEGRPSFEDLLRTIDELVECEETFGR
# assayExplanation: Inhibition of a panel of kinases, in vitro HotSpot kinase assay: TEC
# Assay type: biochemical
# conditionDetails: D-compounds panel data; 1 μM ATP
valueType: IC50

- substanceSmiles: "Cn1cc(Nc2nc(N3CCC[C@@H]4[C@H]3CCCN4C(=O)c3ccc(C4CC4)cc3)cnc2C(N)=O)cn1"
  experimentalSystem: "TEC (Homo sapiens)"
  valueType: "IC50"
  reportedMeasurement: "10 to 100 nM"
- substanceSmiles: "C[C@@H]1[C@H](NC(=O)c2ccc(C3CC3)cc2)CCCN1c1cnc(C(N)=O)c(Nc2cc(C3CCN(C4CCCC4)CC3)ns2)n1"
  experimentalSystem: "TEC (Homo sapiens)"
  valueType: "IC50"
  reportedMeasurement: "10 to 100 nM"
- substanceSmiles: "COC(C)(C)c1ccc(C(=O)N[C@@H]2CCCN(c3cnc(C(N)=O)c(Nc4cnn(C)c4)n3)[C@@H]2C)cc1"
  experimentalSystem: "TEC (Homo sapiens)"
  valueType: "IC50"
  reportedMeasurement: "≤ 10 nM"

---

# experimentalSystem: JAK3 (Homo sapiens)
# Sequence (P52333 whole entry): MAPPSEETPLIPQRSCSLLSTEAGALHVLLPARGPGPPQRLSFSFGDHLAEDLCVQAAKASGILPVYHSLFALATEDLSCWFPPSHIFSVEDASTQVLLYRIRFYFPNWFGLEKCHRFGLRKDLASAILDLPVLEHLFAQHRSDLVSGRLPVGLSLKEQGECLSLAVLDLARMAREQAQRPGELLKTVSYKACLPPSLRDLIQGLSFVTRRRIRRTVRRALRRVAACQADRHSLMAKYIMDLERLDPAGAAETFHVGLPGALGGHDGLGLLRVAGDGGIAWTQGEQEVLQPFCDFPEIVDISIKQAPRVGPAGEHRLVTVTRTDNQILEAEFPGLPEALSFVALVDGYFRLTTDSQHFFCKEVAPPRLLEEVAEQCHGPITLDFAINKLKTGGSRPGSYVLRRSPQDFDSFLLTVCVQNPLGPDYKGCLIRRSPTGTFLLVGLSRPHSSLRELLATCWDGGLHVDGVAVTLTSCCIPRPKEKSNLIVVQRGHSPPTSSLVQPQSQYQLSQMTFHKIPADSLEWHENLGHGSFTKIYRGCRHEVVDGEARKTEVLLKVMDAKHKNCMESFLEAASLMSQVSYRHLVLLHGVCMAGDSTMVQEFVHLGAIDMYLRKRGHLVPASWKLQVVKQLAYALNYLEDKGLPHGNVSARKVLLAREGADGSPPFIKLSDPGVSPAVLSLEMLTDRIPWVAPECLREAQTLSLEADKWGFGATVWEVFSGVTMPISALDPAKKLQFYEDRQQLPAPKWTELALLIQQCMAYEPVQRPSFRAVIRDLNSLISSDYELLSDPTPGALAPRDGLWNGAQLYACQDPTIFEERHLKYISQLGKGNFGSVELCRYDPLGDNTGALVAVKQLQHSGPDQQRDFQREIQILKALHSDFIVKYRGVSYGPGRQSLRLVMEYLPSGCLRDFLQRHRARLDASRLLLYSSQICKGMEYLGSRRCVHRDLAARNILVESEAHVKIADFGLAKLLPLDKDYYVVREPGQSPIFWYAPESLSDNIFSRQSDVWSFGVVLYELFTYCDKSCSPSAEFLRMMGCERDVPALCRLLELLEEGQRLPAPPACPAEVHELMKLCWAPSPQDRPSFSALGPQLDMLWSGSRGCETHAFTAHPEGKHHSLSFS
# assayExplanation: Inhibition of a panel of kinases, in vitro HotSpot kinase assay: JAK3
# Assay type: biochemical
# conditionDetails: Table 10, Formula A-I; 1 μM ATP; read-out: JAK3 (IC50)
pIC50: −log10 of the molar value.
valueType: pIC50

- molecule: "Cc1cc(Nc2cc(N3CCC[C@@H](NC(=O)c4ccccc4)C3)cnc2C(N)=O)sn1 [Example A-61]"
  reportedMeasurement: "5.00 to 6.00"
- molecule: "Cc1cc(Nc2nc(N3CCC[C@@H](NC(=O)C4CCCCC4)C3)cnc2C(N)=O)sn1 [Example A-28]"
  reportedMeasurement: "5.00 to 6.00"
- molecule: "CC(C)c1ccc(C(=O)N[C@@H]2CCCN(c3cnc(C(N)=O)c(Nc4ccc(CN(C)C)cc4)n3)C2)cc1 [Example A-83]"
  reportedMeasurement: "5.00 to 6.00"
- molecule: "Cc1cc(Nc2nc(N3CC[C@@H](NC(=O)N(C)C)C3)cnc2C(N)=O)sn1 [Example A-51]"
  reportedMeasurement: "< 5.00"
- molecule: "Cc1cc(Nc2nc(N3CC[C@@H](NC(=O)c4ccccc4)C3)cnc2C(N)=O)sn1 [Example A-50]"
  reportedMeasurement: "< 5.00"
- molecule: "Cc1cc(Nc2nc(N3CCC[C@@H](N(C)C(=O)c4ccc(C(C)C)cc4)C3)cnc2C(N)=O)sn1 [Example A-40]"
  reportedMeasurement: "< 5.00"
- molecule: "CC(C)c1ccc(C(=O)N[C@@H]2CCCN(c3cnc(C(N)=O)c(Nc4ccccc4)n3)C2)cc1 [Example A-65]"
  reportedMeasurement: "< 5.00"
- molecule: "Cc1cc(Nc2nc(N3CCC[C@@H](NC(=O)c4ccc(F)cc4)C3)cnc2C(N)=O)sn1 [Example A-20]"
  reportedMeasurement: "< 5.00"

---

# experimentalSystem: BTK-WT (Homo sapiens, UniProt Q06187)
# Construct: purified from insect cells as a full-length construct containing an N-terminal 6X-His tag; His6 (N); made in house; host or cells: insect cells (baculovirus Sf21 in Method B)
# Sequence (Q06187 whole entry): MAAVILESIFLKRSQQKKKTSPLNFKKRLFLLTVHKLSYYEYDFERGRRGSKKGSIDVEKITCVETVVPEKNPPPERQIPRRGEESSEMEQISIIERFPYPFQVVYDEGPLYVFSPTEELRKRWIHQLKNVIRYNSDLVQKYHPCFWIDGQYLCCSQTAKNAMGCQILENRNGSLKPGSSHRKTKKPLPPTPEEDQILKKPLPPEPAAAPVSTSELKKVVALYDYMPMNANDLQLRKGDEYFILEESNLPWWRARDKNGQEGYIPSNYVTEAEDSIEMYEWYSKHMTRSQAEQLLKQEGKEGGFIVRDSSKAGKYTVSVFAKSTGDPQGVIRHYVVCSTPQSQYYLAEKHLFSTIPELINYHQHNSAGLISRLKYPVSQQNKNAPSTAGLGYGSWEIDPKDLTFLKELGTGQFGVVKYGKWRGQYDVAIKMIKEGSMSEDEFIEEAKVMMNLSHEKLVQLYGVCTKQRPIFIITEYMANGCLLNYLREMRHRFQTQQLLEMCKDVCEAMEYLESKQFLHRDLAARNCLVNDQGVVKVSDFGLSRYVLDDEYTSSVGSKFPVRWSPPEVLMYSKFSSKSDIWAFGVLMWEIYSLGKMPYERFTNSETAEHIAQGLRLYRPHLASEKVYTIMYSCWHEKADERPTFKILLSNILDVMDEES
# assayExplanation: Btk in vitro inhibitory activity (one of Method A TR-FRET, Method B electrophoretic mobility shift, Method C radiometric filter binding)
# Assay type: biochemical
# conditionDetails: D-compounds panel data; read-out: IC50 BTK-WT
Measured IC50, listed per entry for reference.

- molecule: "Cn1cc(Nc2nc(N3CCC[C@@H]4[C@H]3CCCN4C(=O)c3ccc(C4CC4)cc3)cnc2C(N)=O)cn1"
  IC50: "10 to 100 nM"
- molecule: "C[C@@H]1[C@H](NC(=O)c2ccc(C3CC3)cc2F)CCCN1c1cnc(C(N)=O)c(Nc2cnn(C)c2)n1"
  IC50: "≤ 10 nM"
- molecule: "C[C@@H]1[C@H](NC(=O)c2ccc(C3CC3)cc2)CCCN1c1cnc(C(N)=O)c(Nc2ccc(C3CCN(C)CC3)cc2)n1"
  IC50: "≤ 10 nM"
- molecule: "C[C@@H]1[C@H](NC(=O)c2ccc(C(O)C(F)(F)F)cc2)CCCN1c1cnc(C(N)=O)c(Nc2cnn(C)c2)n1 (single isomer, unassigned) [Example D-250]"
  IC50: "≤ 10 nM"
- molecule: "CC(C)n1cc(Nc2nc(N3CCC[C@@H](NC(=O)c4ccc(C5CC5)cc4F)[C@H]3C)cnc2C(N)=O)cn1"
  IC50: "≤ 10 nM"
- molecule: "C[C@@H]1[C@H](NC(=O)c2ccc(C3CC3)cc2)CCCN1c1cnc(C(N)=O)c(Nc2cnn(C)c2)n1"
  IC50: "≤ 10 nM"
- molecule: "Cc1cc(Nc2nc(N3CCC[C@@H](NC(=O)c4ccc(C(C)(C)O)cc4)[C@H]3C)cnc2C(N)=O)sn1"
  IC50: "≤ 10 nM"
- molecule: "C[C@@H]1[C@H](NC(=O)c2ccc(C(C)(C)C)cc2)CCCN1c1cnc(C(N)=O)c(Nc2ccc(OC3CCN(C)CC3)cc2)n1"
  IC50: "≤ 10 nM"
- molecule: "NC(=O)c1ncc(N2CCC[C@@H](n3ccc4cc(C5CC5)ccc4c3=O)C2)nc1Nc1ccc2ncccc2c1"
  IC50: "100 to 1000 nM"
- molecule: "CN1CCN(C(=O)c2ccc(Nc3nc(N4CCC[C@@H](n5ccc6cc(C7CC7)ccc6c5=O)C4)cnc3C(N)=O)cc2)CC1"
  IC50: "≤ 10 nM"
- molecule: "CN(C)c1ccc2c(=O)n([C@@H]3CCCN(c4cnc(C(N)=O)c(Nc5cnn(C)c5)n4)C3)ccc2c1"
  IC50: "≤ 10 nM"
- molecule: "C[C@@H]1[C@H](NC(=O)N(C)C)CCCN1c1cnc(C(N)=O)c(Nc2ccc3cccnc3c2)n1"
  IC50: "10 to 100 nM"
- molecule: "Cc1cc(Nc2nc(N3CCC[C@H](c4ncc(-c5ccccc5)[nH]4)C3)cnc2C(N)=O)sn1"
  IC50: "10 to 100 nM"
- molecule: "C[C@H]1CC[C@@H](NC(=O)c2ccc(C3CC3)cc2)CN1c1cnc(C(N)=O)c(Nc2ccc(N3CCN(C)CC3)c(F)c2)n1"
  IC50: "≤ 10 nM"
- molecule: "CC(C)c1ccc(S(=O)(=O)N[C@@H]2CCCN(c3cnc(C(N)=O)c(Nc4cnn(C)c4)n3)[C@@H]2C)cc1"
  IC50: "1000 to 10000 nM"
- molecule: "C[C@@H]1[C@H](NC(=O)c2ccc(C3CC3)cc2)CCCN1c1cnc(C(N)=O)c(Nc2cnn(C3CCN(C(=O)C4CC4)CC3)c2)n1"
  IC50: "≤ 10 nM"
- molecule: "Cn1cc(Nc2nc(N3C4CCC(NC(=O)c5ccc(C6CC6)cc5)C3CC4)cnc2C(N)=O)cn1 (single isomer, unassigned) [Example D-200]"
  IC50: "100 to 1000 nM"
- molecule: "C[C@@H]1[C@H](NC(=O)c2ccc(SC(F)(F)F)cc2)CCCN1c1cnc(C(N)=O)c(Nc2ccc(N3CCN(C)CC3)cc2)n1"
  IC50: "≤ 10 nM"
- molecule: "C[C@@H]1[C@H](NC(=O)c2ccc(C3CC3)cc2)CCCN1c1cnc(C(N)=O)c(Nc2cnn(C3CCN(CC(F)(F)F)CC3)c2)n1"
  IC50: "≤ 10 nM"
- molecule: "C[C@@H]1[C@H](NC(=O)c2ccc(C3CC3)cc2)CCCN1c1cnc(C(N)=O)c(Nc2ccc3c(c2)OC(F)(F)O3)n1"
  IC50: "1000 to 10000 nM"
- molecule: "C[C@@H]1[C@H](NC(=O)c2ccc(OC(F)(F)F)cc2)CCCN1c1cnc(C(N)=O)c(Nc2cnn(C)c2)n1"
  IC50: "≤ 10 nM"
- molecule: "C[C@@H]1[C@H](NC(=O)c2ccc(C(C)(O)C(F)(F)F)cc2)CCCN1c1cnc(C(N)=O)c(Nc2cnn(C)c2)n1 (single isomer, unassigned) [Example D-213]"
  IC50: "≤ 10 nM"
- molecule: "C[C@@H]1[C@H](NC(=O)c2ccc3c(c2)OCCO3)CCCN1c1cnc(C(N)=O)c(Nc2cnn(C)c2)n1"
  IC50: "≤ 10 nM"
- molecule: "Cn1cc(Nc2nc(N3CCC(F)(F)[C@@H](NC(=O)c4ccc(C5CC5)cc4)C3)cnc2C(N)=O)cn1"
  IC50: "10 to 100 nM"
- molecule: "C[C@@H]1[C@H](NC(=O)c2ccc(C3CC3)cc2)CCCN1c1cnc(C(N)=O)c(Nc2cnn(C3CCNCC3)c2)n1"
  IC50: "≤ 10 nM"
- molecule: "Cn1cc(Nc2nc(N3C[C@H](CO)C[C@H](NC(=O)c4ccc(C5CC5)cc4)C3)cnc2C(N)=O)cn1 (racemic)"
  IC50: "≤ 10 nM"
